Values from patent US20230192896A1

# Target of assay: free FIXa (activated Factor IX) (UniProt P00740 47-191; P00740 227-461)
# Assay notes: BLI

{"columns": ["Binder", "Kd [nM]"],
 "data": [
  ["BIIB-9-573 (antibody, V domains shown) VH: QLQLQESGPGLVKPSETLSLTCTVSGGSISSSSYYWGWIRQPPGKGLEWIGSIYYSGSTYYNPSLKSRVTISVDTSKNQFSLKLSSVTAADTAVYYCARESKTKGYLDLWGRGTLVTVSS VL: EIVLTQSPGTLSLSPGERATLSCRASQSVSSSFLAWYQQKPGQAPRLLIYGASSRATGIPDRFSGSGSGTDFTLTISRLEPEDFAVYYCQQSHSPPYTFGGGTKVEIK", 8.58],
  ["BIIB-9-1286 (antibody, V domains shown) VH: QVQLVQSGAEVKKPGASVKVSCKASGYTFTSYYMVWVRQAPGQGLEWMGIINPSGGSTSYAQKFQGRVTMTRDTSTSTVYMELSSLRSEDTAVYYCARVPTYRYSYLAFDIWGQGTMVTVSS VL: DIQMTQSPSSVSASVGDRVTITCRASQGISSWLAWYQQKPGKAPKLLIYAASSLQSGVPSRFSGSGSGTDFTLTISSLQPEDFVTYYCQQASSFPPTFGGGTKVEIK", 31.8]
]}
